System: CD2F1 mice, L1210 leukemia ip, survival T/C
Test: NCI In Vivo Anticancer Drug Screen. Data for tumor model L1210 Leukemia (intraperitoneal) in CD2F1 (CDF1) mice
Conditions: endpoint: mean survival time; dose: 100.0 mg/kg/injection; schedule: Q01DX005 (ip); vehicle: water; higher = longer survival
Toxic doses and inconclusive results are not listed.
PROPERTY LABEL: T/C

Query :: For the compound CCSC(C(O)C(O)C(O)C(O)CO)n1cnc2c(=S)nc[nH]c21 (stereo not drawn) , report T/C.
Result :: 96 % of control

Query :: For the compound CC1(C)CC(NC(=O)CSc2ncnc3c2ncn3C2OC(CO)C(O)C2O)CC(C)(C)N1O (stereo not drawn) , report T/C.
Result :: 102 % of control

Query :: For the compound Nc1cc(=S)c2ncn(C3OC(CO)C(O)C3O)c2[nH]1 (stereo not drawn) , report T/C.
Result :: 93 % of control

Query :: For the compound CSc1ncnc2cn(C3OC(CO)C(O)C3O)nc12 (stereo not drawn) , report T/C.
Result :: 100 % of control

Query :: For the compound CN1N=C(N)c2cn(C3OC(CO)C4OC(C)(C)OC43)c3ncnc1c23 (stereo not drawn) , report T/C.
Result :: 104 % of control

Query :: For the compound CCSC(CC(O)C(O)C(O)CO)n1cnc2c(Cl)ncnc21 (stereo not drawn) , report T/C.
Result :: 107 % of control

Query :: For the compound OCC1OC(n2ccn(C3OC(CO)C(O)C3O)c2=S)C(O)C1O (stereo not drawn) , report T/C.
Result :: 98 % of control

Query :: For the compound Cn1c(=O)c2c(ncn2CCCNCC(O)c2ccc(O)c(O)c2)n(C)c1=O (stereo not drawn) , report T/C.
Result :: 100 % of control

# credit: PubChem BioAssay AID256
